Reported EC50 (agonist) values for the following binders.
- study system: mouse melanocortin-3 receptor (mouse, UniProt P33033 1-323)
- Sequence (P33033 whole entry): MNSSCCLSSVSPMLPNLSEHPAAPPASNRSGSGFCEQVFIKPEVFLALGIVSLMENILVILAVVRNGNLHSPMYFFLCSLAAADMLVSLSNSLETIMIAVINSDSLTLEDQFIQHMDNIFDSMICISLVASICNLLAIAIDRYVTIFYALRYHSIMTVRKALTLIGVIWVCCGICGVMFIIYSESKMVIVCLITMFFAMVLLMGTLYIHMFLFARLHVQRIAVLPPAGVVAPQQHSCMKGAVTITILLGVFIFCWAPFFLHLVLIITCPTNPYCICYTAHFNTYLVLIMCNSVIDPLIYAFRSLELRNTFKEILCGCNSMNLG
- measurement notes: cell-based or functional assay
Bridges are numbered along the chain shown (N, C = ends). [ ]: non-standard residue; d: D form. Nle = CCCC[C@H](N)C(=O)O
The answer is to be given in µM; state only the numeric part.

Solved entries (count: 2):
YDHXRXNAFXY (Asp-Dpr side chain lactam bridge; Dpr; DPhe; Bip; C-terminal amide (amide resin)) [SEQ ID NO:41 (Tyr-c[Asp-His-DPhe-Arg-Bip-Asn-Ala-Phe-Dpr]-Tyr)] = 0.45
YDHXAWNAFXY (Asp-Dpr side chain lactam bridge; Dpr; DPhe; C-terminal amide (amide resin)) [SEQ ID NO:26 (Tyr-c[Asp-His-DPhe-Ala-Trp-Asn-Ala-Phe-Dpr]-Tyr)] = 23.8

# input for lookup
Input Ac-[Nle]DHR[dF]FK-NH2 (lactam 2-7) [SEQ ID NO:22 (Ac-Nle-c[Asp-His-Arg-DPhe-Phe-Lys])] . Output EC50 (agonist): 14.4
